Listing of recorded pIC50 by entry.
- subjectOfTest: RIPK2 (KD)/XIAP (BIR2) (Homo sapiens, UniProt O43353)
- Sequence (O43353 1-310): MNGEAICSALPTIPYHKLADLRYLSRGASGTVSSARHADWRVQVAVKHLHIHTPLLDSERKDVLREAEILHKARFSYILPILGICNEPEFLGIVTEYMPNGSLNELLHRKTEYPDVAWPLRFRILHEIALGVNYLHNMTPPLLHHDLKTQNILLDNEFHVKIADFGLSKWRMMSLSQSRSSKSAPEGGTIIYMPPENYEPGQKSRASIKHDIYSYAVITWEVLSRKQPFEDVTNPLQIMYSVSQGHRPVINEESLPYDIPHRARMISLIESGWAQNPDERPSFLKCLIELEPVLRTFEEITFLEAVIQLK
- testDetails: RIPK2-XIAP binding competition PPI assay (TR-FRET)
- measurementContext: GST-RIPK2 / His-XIAP (BIR2)-avi, 120 min at 23° C.
pIC50: −log10 of the molar value.

smilescode=COc1cc2ncc(-c3cc(C(=O)N[C@H](C)c4ccccn4)n(CCCO)n3)n2cc1S(=O)(=O)C(C)(C)C measurementname=pIC50 reported="7.00 to 8.00"
smilescode=CCn1nc(-c2cnc3cc(OCCO)c(S(=O)(=O)C(C)(C)C)cn23)cc1C(=O)N[C@@H](C)c1ccn(C)n1 measurementname=pIC50 reported="6.00 to 7.00"
smilescode=COc1cc2ncc(-c3cc(C(=O)NCc4n[nH]c5cccc(F)c45)n(C)n3)n2cc1S(=O)(=O)C(C)(C)C measurementname=pIC50 reported="> 8.00"
smilescode=CCn1nc(-c2cnc3cc(OCCO)c(S(=O)(=O)C(C)(C)C)cn23)cc1C(=O)NCc1ncc(C)s1 measurementname=pIC50 reported="> 8.00"
smilescode=C[C@@H](NC(=O)c1cc(-c2cnc3cc(OCCO)c(S(=O)(=O)C(C)(C)C)cn23)nn1C1CC1)c1ncccn1 measurementname=pIC50 reported="> 8.00"
smilescode=C[C@@H](NC(=O)c1cc(-c2cnc3cc(OCCO)c(S(=O)(=O)C(C)(C)C)cn23)nn1C)c1ncccc1F measurementname=pIC50 reported="7.00 to 8.00"
smilescode=CCn1nc(-c2cnc3cc(OCCO)c(S(=O)(=O)C(C)(C)C)cn23)cc1C(=O)N[C@H](C)c1ncccc1F measurementname=pIC50 reported="> 8.00"
smilescode=COc1cc2ncc(-c3cc(C(=O)N[C@H](C)c4ncccn4)n(C(C)C)n3)n2cc1S(=O)(=O)C(C)(C)C measurementname=pIC50 reported="> 8.00"

Task item: Lab request: please report pIC50 under test system RIPK2 (KD)/XIAP (BIR2) (Homo sapiens, UniProt O43353) for COc1cc2ncc(-c3cc(C(=O)N[C@H](C)c4ccccn4)n(C4CC4)n3)n2cc1S(=O)(=O)C(C)(C)C
Reply: > 8.00

Task item: Lab request: please report pIC50 under test system RIPK2 (KD)/XIAP (BIR2) (Homo sapiens, UniProt O43353) for COc1cc2ncc(-n3cc(NC(=O)C4CCCCC4)cn3)n2cc1S(=O)(=O)C(C)(C)C
Reply: < 6.00

Task item: Lab request: please report pIC50 under test system RIPK2 (KD)/XIAP (BIR2) (Homo sapiens, UniProt O43353) for COc1cc2ncc(-c3cc(C(=O)NCc4cccc5ccnn45)n(C)n3)n2cc1S(=O)(=O)C(C)(C)C
Reply: 6.00 to 7.00

Task item: Lab request: please report pIC50 under test system RIPK2 (KD)/XIAP (BIR2) (Homo sapiens, UniProt O43353) for COc1cc2ncc(-c3cc(C(=O)NCc4nccs4)n(C)n3)n2cc1S(=O)(=O)C(C)(C)C
Reply: 7.00 to 8.00

Task item: Lab request: please report pIC50 under test system RIPK2 (KD)/XIAP (BIR2) (Homo sapiens, UniProt O43353) for COc1cc2ncc(-c3cc(C(=O)NCc4cc5ccccn5n4)n(C)n3)n2cc1S(=O)(=O)C(C)(C)C
Reply: < 6.00

Task item: Lab request: please report pIC50 under test system RIPK2 (KD)/XIAP (BIR2) (Homo sapiens, UniProt O43353) for COc1cc2ncc(-c3cc(C(=O)NCc4ncn(C)n4)n(C)n3)n2cc1S(=O)(=O)C(C)(C)C
Reply: 6.00 to 7.00

====

Listing of recorded pIC50 by entry.
- subjectOfTest: RIPK2 (KD)/XIAP (BIR2) (Homo sapiens, UniProt O43353)
- testDetails: RIPK2-XIAP binding competition PPI assay (TR-FRET)
- measurementContext: GST-RIPK2 / His-XIAP (BIR2)-avi, 120 min at 23° C.
pIC50: −log10 of the molar value.

molecule=COCCn1nc(-c2cnc3cc(OC)c(S(=O)(=O)C(C)(C)C)cn23)cc1C(=O)N[C@H](C)c1ccccn1 reported="7.00 to 8.00"
molecule="COc1cc2ncc(-c3cc(C(=O)N[C@@H]4C[C@H]4c4ccccc4)n(C)n3)n2cc1S(=O)(=O)C(C)(C)C (single isomer, unassigned) [Example 34]" reported="< 6.00"
molecule=COc1cc2ncc(-n3cc(NC(=O)C4(F)CCC5(CC5)CC4)cn3)n2cc1S(=O)(=O)C(C)(C)C reported="< 6.00"
molecule=COc1cc2ncc(-c3cc(C(=O)NCc4ncccc4C#N)n(C)n3)n2cc1S(=O)(=O)C(C)(C)C reported="7.00 to 8.00"
molecule=COc1cc2ncc(-c3cc(C(=O)N[C@H](CO)c4ccccc4)n(C)n3)n2cc1S(=O)(=O)C(C)(C)C reported="< 6.00"
molecule=COc1cc2ncc(-c3cc(C(=O)NCc4nn(C)c5ccccc45)n(C)n3)n2cc1S(=O)(=O)C(C)(C)C reported="6.00 to 7.00"

Consider now this further molecule.
Task item: Lab request: please report pIC50 under test system RIPK2 (KD)/XIAP (BIR2) (Homo sapiens, UniProt O43353) for COc1cc2ncc(-c3cc(C(=O)NCc4n[nH]c5ccccc45)n(C)n3)n2cc1S(=O)(=O)C(C)(C)C
Reply: > 8.00

====

- subjectOfTest: RIPK2 (KD)/XIAP (BIR2) (Homo sapiens)
- Construct: made in house; host or cells: baculovirus-infected Sf9 cells
- testDetails: RIPK2-XIAP binding competition PPI assay (TR-FRET)
- measurementContext: 50 nM of GSK583 = -100% activity, read-out: PPI Amax
measurementName: Emax

Example cases with answers are listed next.
smilescode=COc1cc2ncc(-c3cc(C(=O)NCc4nn(C)c5ccccc45)n(C)n3)n2cc1S(=O)(=O)C(C)(C)C reported="55 to 80%"
smilescode=COc1cc2ncc(-c3cc(C(=O)N[C@H](C)c4cccc(F)c4)n(C)n3)n2cc1S(=O)(=O)C(C)(C)C reported="≥ 80%"
smilescode=COc1cc2ncc(-n3cc(NC(=O)Cc4cccc(F)c4Cl)cn3)n2cc1S(=O)(=O)C(C)(C)C reported="≥ 80%"
smilescode=COc1cc2ncc(-c3cc(C(=O)N[C@H](C)c4ccn(C)n4)n(C)n3)n2cc1S(=O)(=O)C(C)(C)C reported="≥ 80%"
smilescode=COc1cc2ncc(-n3cc(NC(=O)C4(C)CCCCC4)cn3)n2cc1S(=O)(=O)C(C)(C)C reported="55 to 80%"

Task item: Lab request: please report Emax under test system RIPK2 (KD)/XIAP (BIR2) (Homo sapiens) for COc1cc2ncc(-n3cc(NC(=O)Cc4cc(F)ccc4Cl)cn3)n2cc1S(=O)(=O)C(C)(C)C
Reply: ≥ 80%

Task item: Lab request: please report Emax under test system RIPK2 (KD)/XIAP (BIR2) (Homo sapiens) for CCn1nc(-c2cnc3cc(OCCO)c(S(=O)(=O)C(C)(C)C)cn23)cc1C(=O)N[C@H](C)c1nccs1
Reply: ≥ 80%

Task item: Lab request: please report Emax under test system RIPK2 (KD)/XIAP (BIR2) (Homo sapiens) for COc1cc2ncc(-c3cc(C(=O)NCc4cccn5ccnc45)n(C)n3)n2cc1S(=O)(=O)C(C)(C)C
Reply: ≥ 80%

Task item: Lab request: please report Emax under test system RIPK2 (KD)/XIAP (BIR2) (Homo sapiens) for CCn1nc(-c2cnc3cc(OCCO)c(S(=O)(=O)C(C)(C)C)cn23)cc1C(=O)N[C@H](C)c1ncccc1F
Reply: ≥ 80%

Task item: Lab request: please report Emax under test system RIPK2 (KD)/XIAP (BIR2) (Homo sapiens) for COc1cc2ncc(-c3cc(C(=O)N[C@H](C)c4ccccn4)n(C)n3)n2cc1C1(F)CCN(C)CC1
Reply: ≥ 80%

Task item: Lab request: please report Emax under test system RIPK2 (KD)/XIAP (BIR2) (Homo sapiens) for COc1cc2ncc(-c3cc(C(=O)NCc4ncsn4)n(C)n3)n2cc1S(=O)(=O)C(C)(C)C
Reply: 55 to 80%

====

Listing of recorded IC50 by entry.
- subjectOfTest: RIPK2 (KD)/XIAP (BIR2) (Homo sapiens)
- testDetails: RIPK2-XIAP binding competition PPI assay (TR-FRET)
- measurementContext: GST-RIPK2 / His-XIAP (BIR2)-avi, 120 min at 23° C.

compound=CCn1nc(-c2cnc3cc(OC)c(S(=O)(=O)C(C)(C)C)cn23)cc1C(=O)N[C@H](C)c1ncccc1F reported="< 10 nM"
compound=COc1cc2ncc(-c3cc(NC(=O)O[C@@H](C)c4ccccc4)n(C)n3)n2cc1S(=O)(=O)C(C)(C)C reported="100 to 1000 nM"
compound=COc1cn2ncc(-c3cc(C(=O)N[C@H](C)c4ccccn4)n(C)n3)c2cc1S(=O)(=O)C(C)(C)C reported="100 to 1000 nM"
compound=COc1cc2ncc(-c3cc(C(=O)NCc4cc(C)n[nH]4)n(C)n3)n2cc1S(=O)(=O)C(C)(C)C reported="10 to 100 nM"
compound=COc1cc2ncc(-c3cc(C(=O)NCc4n[nH]c5cccnc45)n(C)n3)n2cc1S(=O)(=O)C(C)(C)C reported="10 to 100 nM"
compound=COc1cc2ncc(-n3cc(NC(=O)[C@@H](C)c4ccccc4)cn3)n2cc1S(=O)(=O)C(C)(C)C reported="> 1000 nM"
compound=COc1cc2ncc(-n3cc(NC(=O)OC(C)(C)C)cn3)n2cc1S(=O)(=O)C(C)(C)C reported="> 1000 nM"
compound=COc1cc2ncc(-n3cc(NC(=O)Cc4ccccc4Cl)cn3)n2cc1S(=O)(=O)C(C)(C)C reported="100 to 1000 nM"

Task item: GET /values?readout=IC50&item= CCn1nc(-c2cnc3cc(OCCO)c(S(=O)(=O)C(C)(C)C)cn23)cc1C(=O)N[C@H](C)c1cc(C)ccn1
Reply: 10 to 100 nM

Task item: GET /values?readout=IC50&item= COc1cc2ncc(-c3cc(C(=O)NCc4ccccc4CO)n(C)n3)n2cc1S(=O)(=O)C(C)(C)C
Reply: 10 to 100 nM

Task item: GET /values?readout=IC50&item= COc1cc2ncc(-c3cc(C(=O)N[C@H](C)c4ncccc4F)n(CCO)n3)n2cc1S(=O)(=O)C(C)(C)C
Reply: 10 to 100 nM

Task item: GET /values?readout=IC50&item= COc1cc2ncc(-c3cc(C(=O)NCc4ccncn4)n(C)n3)n2cc1S(=O)(=O)C(C)(C)C
Reply: > 1000 nM

Task item: GET /values?readout=IC50&item= COc1cc2ncc(-n3cc(N4CCC(c5ccccc5)C4=O)cn3)n2cc1S(=O)(=O)C(C)(C)C (racemic) [Example 180]
Reply: > 1000 nM
